Sourced from PubChem BioAssay (NCATS)

# measurement.description: P-glycoprotein substrates identified in KB-3-1 adenocarcinoma cell line, qHTS therapeutic library screen (AID 1346986); also: nearly all actives have a fitted effect of over 60% in size
# measurement.conditions: KB-3-1 parental cells viability, CellTiter-Glo, 72 h; series mostly up to 44.5 µM
Records with an inconclusive call do not appear. The source made the active and inactive calls. Calls follow the shape of the dose curve; as a rule, active = well fitted inhibition curve with a large enough effect; inconclusive = small, poorly fitted or top-dose-only effect; inactive = no such curve, though single readings can be large or run the other way.
Log the outcome using a class from active, inactive

Solved cases below.
1. O=C(NOCCO)c1cc(CN2OCCCC2=O)c(F)c(F)c1Nc1ccc(I)cc1F; inactive
2. CCCCCC1CC1CC1CC1CCCCCCCC(=O)O (configuration not stated); inactive
3. O=C(Nc1cccc(Nc2cc(Nc3cccc(C(F)(F)F)c3)ncn2)c1)C1CC1; active
4. COCCNCc1ccc(-c2cc3nccc(Oc4ccc(NC(=S)NC(=O)Cc5ccc(F)cc5)cc4F)c3s2)nc1; active
5. NC(=O)c1ncn(C2O[C@H](CO)[C@@H](O)[C@H]2O)c1N (some centres not stated); inactive
6. COC1(c2sc3c(N4CCOCC4)nc(-c4cnc(N)nc4)nc3c2C)COC1; active
7. CC1=CC(=O)C(C(C)C)=C/C1=N/OC(=O)c1ccccc1C; inactive
8. COC(=O)C#Cc1ccc([N+](=O)[O-])cc1; active

Task item: How was CC(=O)[C@H]1CCC2C3CCC4=CC(=O)CC[C@]4(C)C3[C@H](O)C[C@@]21C (some centres not stated) classified in this test?
Reply: inactive

Task item: How was "Cc1c[nH]c(/C=C2\C(=O)Nc3ccccc32)c1CCC(=O)O" classified in this test?
Reply: inactive

Task item: How was "CN[C@H]1CCN(C(=O)c2ccc(Nc3ncc(F)c(-c4cnc(C)n4C(C)C)n3)cc2)C1" classified in this test?
Reply: active

Task item: How was "COc1cc(/C=C(\C#N)C(N)=O)cc(CSc2nc3ccccc3s2)c1O" classified in this test?
Reply: inactive

Task item: How was Cc1cn(C2OC(CO)C(O)C2F)c(=O)[nH]c1=O (configuration not stated) classified in this test?
Reply: inactive

----------
# subject.of.test: Furin (Homo sapiens) (UniProt P09958)
# Sequence (P09958 whole entry, looked up): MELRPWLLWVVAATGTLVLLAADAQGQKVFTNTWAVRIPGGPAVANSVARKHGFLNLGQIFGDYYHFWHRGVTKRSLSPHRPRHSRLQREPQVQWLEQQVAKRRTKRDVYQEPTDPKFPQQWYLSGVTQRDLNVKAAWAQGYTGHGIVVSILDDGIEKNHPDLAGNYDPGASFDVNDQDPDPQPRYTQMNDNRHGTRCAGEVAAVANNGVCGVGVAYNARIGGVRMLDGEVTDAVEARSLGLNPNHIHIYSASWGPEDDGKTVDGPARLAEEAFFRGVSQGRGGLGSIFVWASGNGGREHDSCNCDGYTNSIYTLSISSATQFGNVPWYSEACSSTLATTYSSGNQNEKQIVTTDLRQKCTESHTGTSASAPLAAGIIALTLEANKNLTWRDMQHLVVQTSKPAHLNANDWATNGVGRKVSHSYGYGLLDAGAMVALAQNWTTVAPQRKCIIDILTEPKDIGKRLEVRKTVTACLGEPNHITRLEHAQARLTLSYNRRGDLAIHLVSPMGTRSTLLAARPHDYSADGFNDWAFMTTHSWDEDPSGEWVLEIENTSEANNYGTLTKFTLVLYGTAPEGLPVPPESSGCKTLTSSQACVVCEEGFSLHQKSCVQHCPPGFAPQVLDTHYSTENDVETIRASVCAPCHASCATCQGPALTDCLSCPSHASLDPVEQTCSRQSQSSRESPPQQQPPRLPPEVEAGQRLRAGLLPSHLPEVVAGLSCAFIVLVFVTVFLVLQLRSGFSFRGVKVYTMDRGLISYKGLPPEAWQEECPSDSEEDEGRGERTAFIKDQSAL
# measurement.description: Furin counterscreen qHTS for Zika virus inhibitors (AID 1347149); also: nearly all actives have a fitted effect of over 70% in size
# measurement.conditions: furin enzymatic counterscreen, fluorogenic substrate; series mostly up to 114 µM
Inconclusive results are not listed. Calls of active or inactive are those of the source. Calls come from the whole dose curve; as a rule, active = well fitted inhibition curve with a large enough effect; inconclusive = small, poorly fitted or top-dose-only effect; inactive = no such curve, though single readings can be large or run the other way.
Log the outcome using a class from class 1 (active), class 0 (inactive)

Solved cases below.
1. CC(C)c1nn2c(=O)cc(COC(=O)c3ccc(NC(=O)c4cccs4)cc3)nc2s1; class 0
2. O=C(O)c1cccc(-c2cc(C(F)(F)F)ccc2Cl)c1; class 0
3. Cc1ccc(-c2nnc(Nc3ccccc3)c3ccccc23)cc1S(=O)(=O)NCc1nc2ccccc2[nH]1; class 1
4. Cc1cc(=O)c2c(O)c3c(O)cc(O)c4c5c(O)cc(O)c6c(O)c7c(=O)cc(C)c8c1c2c(c34)c(c65)c78; class 0

Task item: How was "O=C(O)CCc1ccc(-c2ccc(Cl)cc2)n1-c1cccc(C(F)(F)F)c1" classified in this test?
Reply: class 0

Task item: How was CC[C@@H](C(=O)[C@H](C)[C@@H](O)[C@H](C)CCc1ccc(C)c(O)c1C(=O)O)C1O[C@@](CC)(C2CC[C@](O)(CC)[C@H](C)O2)C[C@@H]1C (stereo partly drawn) classified in this test?
Reply: class 0

Task item: How was "Cc1ccc(-c2nnc(Nc3ccc(Br)cc3)c3ccccc23)cc1S(=O)(=O)NCc1nc2ccccc2[nH]1" classified in this test?
Reply: class 1

Task item: How was "O=C(OCc1cc(=O)n2c3c(sc2n1)CCCC3)c1cccc(NC(=O)c2ccccc2F)c1" classified in this test?
Reply: class 1
